// data source = PubChem BioAssay AID1963432

Test system: SYO-1 complex spheroid growth, percent test/control
ASSAY_SUMMARY: Anticancer human tumor SYO-1 cell line growth inhibition [Asc];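 also: compound exposure lasted 7 days after spheroids grew 3 days; 100% = DMSO vehicle control viability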
RECORDED_CONDITIONS: second compound 0.316 µM; first compound 0.0316 µM; stronger effect = lower value
Source text: Multicellular complex tumor spheroid response to apoptosis pathway targeting inhibitors Alrizomadlin, Pelcitoclax, and Dasminapant in combination with a variety of drugs and investigational agents in selected tumor cell lines […] Compounds. […] If the clinical Cmax for an agent had not been determined, the highest concentration tested was 10 microM. […]

- COMPOUND: "COc1c(OCCCN2CCOCC2)ccc2c3n(c(=NC(=O)c4cnc(N)nc4)nc12)CCN3 + Cc1c(S(C)(=O)=O)c(-c2cc(F)cc(N3CCN(c4ccc(NS(=O)(=O)c5ccc(NC(CCN6CCC(C(=O)OCCCP(=O)(O)O)CC6)CSc6ccccc6)c(S(=O)(=O)C(F)(F)F)c5)cc4)CC3)c2)c(-c2ccc(Cl)cc2)n1C(C)C"
  UNIT_ANNOTATION: "%"
  viability, T/C: 94.1
- COMPOUND: "C=C(F)C(=O)N1CCN(c2nc(OCC3CCCN3C)nc3c2CCN(c2cccc4cccc(Cl)c24)C3)CC1CC#N (configuration not stated) + CNC(C)C(=O)NC1CN(S(=O)(=O)c2cccc(S(=O)(=O)N3CCC4CCC(C(=O)NC(c5ccccc5)c5ccccc5)N4C(=O)C(NC(=O)C(C)NC)C3)c2)CCC2CCC(C(=O)NC(c3ccccc3)c3ccccc3)N2C1=O"
  UNIT_ANNOTATION: "%"
  viability, T/C: 98.5
- COMPOUND: "O=C(c1cc(Cc2n[nH]c(=O)c3ccccc23)ccc1F)N1CCN(C(=O)C2CC2)CC1 + Cc1c(S(C)(=O)=O)c(-c2cc(F)cc(N3CCN(c4ccc(NS(=O)(=O)c5ccc(NC(CCN6CCC(C(=O)OCCCP(=O)(O)O)CC6)CSc6ccccc6)c(S(=O)(=O)C(F)(F)F)c5)cc4)CC3)c2)c(-c2ccc(Cl)cc2)n1C(C)C"
  UNIT_ANNOTATION: "%"
  viability, T/C: 95.6
- COMPOUND: "C=C(F)C(=O)N1CCN(c2nc(OCC3CCCN3C)nc3c2CCN(c2cccc4cccc(Cl)c24)C3)CC1CC#N (configuration not stated) + Cc1c(S(C)(=O)=O)c(-c2cc(F)cc(N3CCN(c4ccc(NS(=O)(=O)c5ccc(NC(CCN6CCC(C(=O)OCCCP(=O)(O)O)CC6)CSc6ccccc6)c(S(=O)(=O)C(F)(F)F)c5)cc4)CC3)c2)c(-c2ccc(Cl)cc2)n1C(C)C"
  UNIT_ANNOTATION: "%"
  viability, T/C: 98.8
- COMPOUND: "O=C(c1ccc(F)c(F)c1Nc1ccc(I)cc1F)N1CC(O)([C@@H]2CCCCN2)C1 + Cc1c(S(C)(=O)=O)c(-c2cc(F)cc(N3CCN(c4ccc(NS(=O)(=O)c5ccc(NC(CCN6CCC(C(=O)OCCCP(=O)(O)O)CC6)CSc6ccccc6)c(S(=O)(=O)C(F)(F)F)c5)cc4)CC3)c2)c(-c2ccc(Cl)cc2)n1C(C)C"
  UNIT_ANNOTATION: "%"
  viability, T/C: 94.2
- COMPOUND: "O=C(c1ccc(F)c(F)c1Nc1ccc(I)cc1F)N1CC(O)([C@@H]2CCCCN2)C1 + CNC(C)C(=O)NC1CN(S(=O)(=O)c2cccc(S(=O)(=O)N3CCC4CCC(C(=O)NC(c5ccccc5)c5ccccc5)N4C(=O)C(NC(=O)C(C)NC)C3)c2)CCC2CCC(C(=O)NC(c3ccccc3)c3ccccc3)N2C1=O"
  UNIT_ANNOTATION: "%"
  viability, T/C: 99.6
- COMPOUND: "Cn1ncnc1[C@H]1c2n[nH]c(=O)c3cc(F)cc(c23)N[C@@H]1c1ccc(F)cc1 + CNC(C)C(=O)NC1CN(S(=O)(=O)c2cccc(S(=O)(=O)N3CCC4CCC(C(=O)NC(c5ccccc5)c5ccccc5)N4C(=O)C(NC(=O)C(C)NC)C3)c2)CCC2CCC(C(=O)NC(c3ccccc3)c3ccccc3)N2C1=O"
  UNIT_ANNOTATION: "%"
  viability, T/C: 66.8
